# SYSTEM NAME: human GPR119 (Homo sapiens (Human), UniProt Q8TDV5)
# Sequence (Q8TDV5 whole entry): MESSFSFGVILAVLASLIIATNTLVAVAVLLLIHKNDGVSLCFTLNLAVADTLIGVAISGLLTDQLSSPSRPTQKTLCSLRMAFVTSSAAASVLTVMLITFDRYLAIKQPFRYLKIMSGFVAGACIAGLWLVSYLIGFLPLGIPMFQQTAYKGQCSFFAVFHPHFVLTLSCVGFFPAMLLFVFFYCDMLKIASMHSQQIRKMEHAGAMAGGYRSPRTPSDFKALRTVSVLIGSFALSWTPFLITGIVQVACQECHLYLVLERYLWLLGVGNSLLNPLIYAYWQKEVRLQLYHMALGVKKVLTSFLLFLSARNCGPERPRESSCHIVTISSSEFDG
# ASSAY NOTES: AlphaScreen cAMP assay in Min-6/hGPR119 cells (GPR119 activation, intracellular cAMP)
# TEST PARAMETERS: MIN6 cells stably transfected with human GPR119; 45 minutes' incubation at RT; AlphaScreen cAMP Assay Kit
# Experimental: The compounds of formula I according to the invention are GPR119 agonists. The effect of the compounds on the activation of GPR119 and on the stimulation of intracellular cAMP concentration is determined using the AlphaScreen cAMP Assay Kit (Cat. No. #6760625R) made by PerkinElmer. MIN6 cells [Miyazaki J et al. Endocrinology. 1990 July; 127(1):126-32] were stably transfected with an expression vector for human GPR119 cDNA (Acc. No. NP_848566). […]
pEC50: −log10 of the molar value.
Tick MET if pEC50 is 7 or greater. Tick NOT MET if pEC50 is less than 7.

stdin: Say whether O=C1NN=C(N2CCc3nc(-c4ccccc4)oc3C2)C2CC12 (centres unmarked) shows pEC50 of 7 or more.
stdout: NOT MET

stdin: Say whether CCC1CC(=O)NN=C1c1ccc2nc(-c3ccc(OC(C)C)cc3)oc2c1 (centres unmarked) shows pEC50 of 7 or more.
stdout: MET

stdin: Say whether CCC1CC(=O)NN=C1c1ccc2nc(-c3ccc(OC)c(F)c3)oc2c1 (centres unmarked) shows pEC50 of 7 or more.
stdout: NOT MET

Here's the next entry for you.
stdin: Say whether CCC1CC(=O)NN=C1c1ccc2nc(-c3cccc(OC(C)C)c3)oc2c1 (centres unmarked) shows pEC50 of 7 or more.
stdout: NOT MET

----------
# SYSTEM NAME: human GPR119 (Homo sapiens (Human))
# ASSAY NOTES: AlphaScreen cAMP assay in Min-6/hGPR119 cells (GPR119 activation, intracellular cAMP)
# TEST PARAMETERS: MIN6 cells stably transfected with human GPR119; 45 minutes' incubation at RT; AlphaScreen cAMP Assay Kit
MEASURED ATTRIBUTE: pEC50
Keep it numeric: pEC50 is minus log10 of the concentration in mol/L.

Examples from the recorded data:
stdin: For the molecule CCC1CC(=O)NN=C1c1ccc2nc(-c3ccc(OC)cc3F)oc2c1 (stereo not drawn) , give its reported pEC50.
stdout: 6.85

stdin: For the molecule O=C1NN=C(c2ccc3nc(-c4ccc(F)cc4)oc3c2)C2CC12 (stereo not drawn) , give its reported pEC50.
stdout: 6.82

stdin: For the molecule CC1CC(=O)NN=C1c1ccc2nc(-c3cccnc3)oc2c1 (stereo not drawn) , give its reported pEC50.
stdout: 5.34

stdin: For the molecule CCC[C@H]1C(=O)NN=C(c2ccc3nc(-c4cccs4)oc3c2)[C@@H]1C (relative stereo) , give its reported pEC50.
stdout: 6.87

stdin: For the molecule O=C1CCC(c2ccc3nc(-c4ccccc4)oc3c2)=NN1 , give its reported pEC50.
stdout: 6.50

stdin: For the molecule CCC1CC(=O)NN=C1c1ccc2nc(-c3ccc(C)s3)oc2c1 (stereo not drawn) , give its reported pEC50.
stdout: 6.71

stdin: For the molecule Cc1ccc(-c2nc3ccc(C4=NNC(=O)C5CC45)cc3o2)cc1 (stereo not drawn) , give its reported pEC50.
stdout: 6.82

stdin: For the molecule CCC1CC(=O)NN=C1c1ccc2nc(-c3ccc(OC4CCCCC4O)cc3)oc2c1 (stereo not drawn) , give its reported pEC50.
stdout: 6.97

Further cases:
stdin: For the molecule CCC1CC(=O)NN=C1c1ccc2nc(-c3ccc(OCCN4CCOCC4)cc3)oc2c1 (stereo not drawn) , give its reported pEC50.
stdout: 6.63

stdin: For the molecule CCC1CC(=O)NN=C1c1ccc2nc(-c3ccc(OCC4CCN(S(C)(=O)=O)CC4)cc3)oc2c1 (stereo not drawn) , give its reported pEC50.
stdout: 6.62
